test system: NCI60 tumor cell line panel; assay: NCI60 five-dose screen, mean over panel; assay type: cell-based, human; conditions: Homo sapiens; five dose; across 57-60 cell lines (number given per compound); read-out: Mean of GI50 as Log 10 Concentration (SD) (converted)
Quick reference: GI50 of the listed items.
A number alone suffices; assume nM.

compound	GI50 / nM
COC(=O)c1c2c(c(C)[n+]([O-])c1C)C(=O)C(NCc1ccc(Br)cc1)=CC2=O [Compound 14]	1640
COC(=O)c1c2c(c(C)[n+]([O-])c1C)C(=O)C=C(NCc1ccc(F)c(Cl)c1)C2=O [Compound 19]	290
COC(=O)c1c2c(c(C)[n+]([O-])c1C)C(=O)C(NCc1ccc(O)cc1)=CC2=O [Compound 20]	1310

Below: the item to evaluate.
Query: Quick one: GI50 of COC(=O)c1c2c(c(C)[n+]([O-])c1C)C(=O)C=C(NCc1ccc(Cl)cc1)C2=O [Compound 11] ?
Response: 412
